experiment: Drug level in brain of Lewis rat complete Freund's adjuvant-induced hyperalgesia model at 100 mg/kg, po and sc at 120 mins; format: ADME, organism-based; set-up: dose 100 mg/kg, route oral; details: read-out: Drug uptake
READOUT_NAME: concentration at 2 h (µM)
Give the value, in units of µM, as a plain number.

I'd like to know its concentration at 2 h. The compound in question is O=C(NCC1(CO)CCCC1)c1nc(N2CCOCC2)n2ccccc12 1.3

* * *

molecular target: Cannabinoid receptor 1 (Homo sapiens); assay: Agonist activity at human CB1 receptor expressed in CHO-K1 cells assessed as inhibition of forskolin-stimulated cAMP level
READOUT_NAME: IC50 (µM)
Give the value, in units of µM, as a plain number.

>>> df
                            chemical_string  experimental_value
0  O=C(N[C@H](c1ccccn1)C(F)(F)F)c1nc(N2CCOCC2)n2ccccc12               0.705
1  O=C(NCC1(CO)CCCC1)c1nc(CN2CCC(F)(F)CC2)n2ccccc12               0.068
2  O=C(Nc1cccc(C(F)(F)F)n1)c1nc(CN2CCS(=O)(=O)CC2)c2ccccn12                12.7
3  O=C(c1cccc(Cl)c1Cl)c1nc(CN2CCOCC2)c2ccccn12                2.56
4  O=C(c1cccc(F)c1C(F)(F)F)c1nc(CN2CCOCC2)c2ccccn12                2.23

Let's switch to this molecule now.
I'd like to know its IC50. The molecule in question is O=C(Nc1cccc(C(F)(F)F)n1)c1nc(CN2CCC(F)(F)CC2)c2ccccn12 0.347

* * *

Measured IC50 of individual entries
molecular target: Cannabinoid receptor 1 (Homo sapiens, UniProt P21554); experiment: Agonist activity at human CB1 receptor expressed in CHO-K1 cells assessed as inhibition of forskolin-stimulated cAMP level
Sequence (P21554 whole entry): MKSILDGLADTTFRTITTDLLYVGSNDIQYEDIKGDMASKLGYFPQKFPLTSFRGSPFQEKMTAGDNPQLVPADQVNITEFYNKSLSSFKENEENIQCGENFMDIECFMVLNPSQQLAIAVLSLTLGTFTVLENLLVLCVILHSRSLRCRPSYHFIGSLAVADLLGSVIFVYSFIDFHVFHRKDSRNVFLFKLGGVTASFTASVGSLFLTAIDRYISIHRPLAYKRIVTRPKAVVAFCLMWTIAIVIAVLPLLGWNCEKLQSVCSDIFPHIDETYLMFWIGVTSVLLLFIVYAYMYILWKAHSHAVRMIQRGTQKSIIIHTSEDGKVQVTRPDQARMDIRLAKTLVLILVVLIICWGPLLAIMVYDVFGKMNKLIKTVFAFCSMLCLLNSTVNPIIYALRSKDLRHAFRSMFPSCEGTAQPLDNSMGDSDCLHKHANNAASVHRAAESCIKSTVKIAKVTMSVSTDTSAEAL

In [3]: df
Out[3]:
                                   compound  experimental_value
0  O=C(NC(c1cccnc1)C(F)(F)F)c1nc(N2CCOCC2)c2cnccn12 (stereo not drawn)             > 17 µM
1  O=C(N[C@H](c1ccccn1)C(F)(F)F)c1nc(N2CCOCC2)c2cnccn12             > 17 µM

I'd like to know its IC50. The compound in question is O=C(NC(C1CC1)C1CC1)c1nc(C2CC2)n2ccccc12 > 17 µM
